Target: T1, human CD40 full-length (human, UniProt P25942 21-277)
T1 construct: Also used for CD40 of Daudi cells, of CD40-expressing HEK293 cells and of the BPS CD40/NFkB HEK293 reporter cells where the row says so; also called CD4001012; CHOK1SV/CD40
T1 sequence (P25942 21-277): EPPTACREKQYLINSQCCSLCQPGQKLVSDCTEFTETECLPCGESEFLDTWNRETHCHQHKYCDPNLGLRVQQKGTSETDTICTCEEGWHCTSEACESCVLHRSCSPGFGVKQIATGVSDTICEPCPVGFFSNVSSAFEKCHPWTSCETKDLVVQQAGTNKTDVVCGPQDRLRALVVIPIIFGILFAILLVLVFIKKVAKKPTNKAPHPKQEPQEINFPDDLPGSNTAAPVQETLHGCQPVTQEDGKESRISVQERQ
Test: flow cytometry, CHOK1SV/human CD40 cells
MEASURED_ATTRIBUTE: binding result

Record CD4001100 (Fc fusion, As m65; not shown: wildtype IgG1 Fc region) DVQMTQSPILLSASVGDRVTITCRSSQSLVHYNGYTYVHWYQQRTNGSPRLLIYKVSNRFSGVPDRFSGSGSGTDFTLTISSLQPEDIADYFCQQTTHVPLTFGAGTKVEIKGGGGSGGGGSGGGGSGGGGSEVQLVESGGGLEQPGGSLRLSCAASGFTFSSYAMSWVRQAPGKGLEWVASISSAGTYIYYADSVKGRFTISRDNSKNTLYLQMNSLRAEDTAVYYCARHGNGYDPLWYFDVWGQGTTVTVSS , field binding result: binds
